testProtocol: Cytotoxicity against human Huh-9-13 cells
Type: cell-based
metricName: CC50

# annotated cases, reported CC50 shown
# molecule, metricName, dataValue
rows = [
    ("NC(=O)c1nc(C#Cc2ccc(F)cc2)n(COCCO)n1", "CC50", "> 160 µM"),
    ("NC(=O)c1ncn([C@@H]2O[C@H](CO)[C@@H](O)[C@H]2O)n1", "CC50", "229 µM"),
    ("NC(=O)c1nc(C#Cc2ccccc2)n(COCCO)n1", "CC50", "> 170 µM"),
    ("COC(=O)c1nc(C#CC2(O)CCCC2)n([C@@H]2O[C@H](COC(C)=O)[C@@H](OC(C)=O)[C@H]2OC(C)=O)n1", "CC50", "> 105 µM"),
    ("NC(=O)c1nc(C#Cc2ccc(C(F)(F)F)cc2)n(COCCO)n1", "CC50", "79 µM"),
]

Please find the next compound below.
input: Recorded CC50 of NC(=O)c1nc(C#Cc2ccc(C(F)(F)F)cc2)n([C@@H]2O[C@H](CO)[C@@H](O)[C@H]2O)n1 , please.
output: > 120 µM
